biological target: Death-associated protein kinase 3 (Homo sapiens); assay: Inhibition of DAPK3 by FRET assay
Sequence (O43293 whole entry): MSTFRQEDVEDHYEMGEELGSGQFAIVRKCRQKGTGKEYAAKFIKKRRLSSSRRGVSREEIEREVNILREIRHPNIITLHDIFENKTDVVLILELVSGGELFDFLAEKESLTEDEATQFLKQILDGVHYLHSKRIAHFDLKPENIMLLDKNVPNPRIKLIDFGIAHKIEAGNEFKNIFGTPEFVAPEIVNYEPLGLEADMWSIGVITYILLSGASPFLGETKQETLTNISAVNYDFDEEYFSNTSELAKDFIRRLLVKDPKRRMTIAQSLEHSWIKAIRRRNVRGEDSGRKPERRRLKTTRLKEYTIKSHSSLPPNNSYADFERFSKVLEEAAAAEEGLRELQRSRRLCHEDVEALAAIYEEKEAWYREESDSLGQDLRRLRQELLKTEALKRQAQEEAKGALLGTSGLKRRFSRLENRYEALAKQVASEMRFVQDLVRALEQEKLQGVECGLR
endpoint: IC50

# lookup: IC50 of `CSc1ccccc1Nc1nc(N2CCN(C3CCNCC3)CC2)nc2c(NCC3CC3)ncnc12`
< 10 µM

###

target: Calcium/calmodulin-dependent protein kinase type 1D (Homo sapiens); experiment: Inhibition of CAMK1D by FRET assay
pIC50: −log10 of the molar value.
endpoint: pIC50

# lookup: pIC50 of `CSc1ccccc1Nc1nc(N2CCN(C3CCNCC3)CC2)nc2c(NCC3CC3)ncnc12`
> 5.00

###

Biological target: Serine/threonine-protein kinase Nek2 (Homo sapiens, UniProt P51955)
Sequence (P51955 whole entry): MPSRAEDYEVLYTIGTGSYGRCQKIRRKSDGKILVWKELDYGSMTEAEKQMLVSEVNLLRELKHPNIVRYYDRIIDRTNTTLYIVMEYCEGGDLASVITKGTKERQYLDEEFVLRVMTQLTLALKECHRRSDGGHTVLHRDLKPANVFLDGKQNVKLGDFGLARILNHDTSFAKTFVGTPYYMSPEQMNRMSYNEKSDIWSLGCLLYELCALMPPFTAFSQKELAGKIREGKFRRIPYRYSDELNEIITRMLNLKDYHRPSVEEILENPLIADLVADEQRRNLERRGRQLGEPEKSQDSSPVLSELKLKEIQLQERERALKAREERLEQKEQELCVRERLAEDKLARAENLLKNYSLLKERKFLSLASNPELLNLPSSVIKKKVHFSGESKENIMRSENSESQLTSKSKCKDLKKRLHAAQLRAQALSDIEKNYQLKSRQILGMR
endpoint: IC50

# lookup: IC50 of `CSc1ccccc1Nc1nc(N2CCN(C3CCNCC3)CC2)nc2c(NCC3CC3)ncnc12`
< 10 µM

###

target: AMP-activated protein kinase (AMPK) alpha-1/beta-1/gamma-1 (Homo sapiens, UniProt P54619+Q13131+Q9Y478); assay: Inhibition of AMPK A1/B1/G1 by FRET assay
Sequence (P54619 whole entry): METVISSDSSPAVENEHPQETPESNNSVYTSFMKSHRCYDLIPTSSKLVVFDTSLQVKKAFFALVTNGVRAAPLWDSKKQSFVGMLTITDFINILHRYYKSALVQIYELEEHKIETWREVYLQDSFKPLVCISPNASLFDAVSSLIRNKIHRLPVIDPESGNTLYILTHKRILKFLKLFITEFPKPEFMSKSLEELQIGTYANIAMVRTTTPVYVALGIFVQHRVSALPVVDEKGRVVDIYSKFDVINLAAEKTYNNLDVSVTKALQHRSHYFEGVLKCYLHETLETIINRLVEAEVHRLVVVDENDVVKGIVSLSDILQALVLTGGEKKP
Sequence (Q9Y478 whole entry): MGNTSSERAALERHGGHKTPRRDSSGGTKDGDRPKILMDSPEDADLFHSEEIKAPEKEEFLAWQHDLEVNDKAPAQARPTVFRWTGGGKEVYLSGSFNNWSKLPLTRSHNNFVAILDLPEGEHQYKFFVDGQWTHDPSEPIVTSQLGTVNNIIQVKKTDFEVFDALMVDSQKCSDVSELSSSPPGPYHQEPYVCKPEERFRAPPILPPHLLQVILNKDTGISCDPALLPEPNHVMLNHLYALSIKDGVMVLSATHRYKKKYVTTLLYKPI
Sequence (Q13131 whole entry): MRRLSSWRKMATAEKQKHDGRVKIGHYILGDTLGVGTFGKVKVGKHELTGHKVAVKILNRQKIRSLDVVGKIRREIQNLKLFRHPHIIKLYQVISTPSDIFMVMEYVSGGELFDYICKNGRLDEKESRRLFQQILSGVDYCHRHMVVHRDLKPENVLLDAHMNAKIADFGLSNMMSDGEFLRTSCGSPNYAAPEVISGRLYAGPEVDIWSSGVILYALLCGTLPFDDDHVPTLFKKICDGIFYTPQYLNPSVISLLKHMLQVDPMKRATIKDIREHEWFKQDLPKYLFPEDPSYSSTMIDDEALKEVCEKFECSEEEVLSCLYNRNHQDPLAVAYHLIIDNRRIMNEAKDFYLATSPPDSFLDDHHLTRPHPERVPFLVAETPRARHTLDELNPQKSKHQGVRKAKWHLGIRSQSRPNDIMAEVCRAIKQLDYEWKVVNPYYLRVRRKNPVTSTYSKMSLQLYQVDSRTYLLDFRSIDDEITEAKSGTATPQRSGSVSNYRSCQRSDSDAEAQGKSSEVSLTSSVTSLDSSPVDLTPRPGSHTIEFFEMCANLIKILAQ
pIC50: −log10 of the molar value.
endpoint: pIC50

# lookup: pIC50 of `CSc1ccccc1Nc1nc(N2CCN(C3CCNCC3)CC2)nc2c(NCC3CC3)ncnc12`
> 5.00

###

molecular target: Serine/threonine-protein kinase Chk1 (Homo sapiens, UniProt O14757); experiment: Inhibition of CHEK1 by FRET assay
Sequence (O14757 whole entry): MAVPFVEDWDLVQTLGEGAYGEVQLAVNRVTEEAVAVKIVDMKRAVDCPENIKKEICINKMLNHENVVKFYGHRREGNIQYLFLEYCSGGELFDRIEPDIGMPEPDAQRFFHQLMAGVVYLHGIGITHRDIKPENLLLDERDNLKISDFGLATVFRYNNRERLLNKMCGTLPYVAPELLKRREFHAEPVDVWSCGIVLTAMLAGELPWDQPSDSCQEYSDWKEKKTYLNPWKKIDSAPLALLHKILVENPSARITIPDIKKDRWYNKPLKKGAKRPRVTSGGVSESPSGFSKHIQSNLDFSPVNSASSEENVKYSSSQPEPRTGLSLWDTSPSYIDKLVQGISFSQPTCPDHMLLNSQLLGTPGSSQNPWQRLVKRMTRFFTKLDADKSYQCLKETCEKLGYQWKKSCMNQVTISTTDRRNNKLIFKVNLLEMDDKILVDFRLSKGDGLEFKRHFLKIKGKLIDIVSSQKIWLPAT
pIC50: −log10 of the molar value.
endpoint: pIC50

# lookup: pIC50 of `CSc1ccccc1Nc1nc(N2CCN(C3CCNCC3)CC2)nc2c(NCC3CC3)ncnc12`
> 5.00

###

biological target: cAMP-dependent protein kinase catalytic subunit alpha (Homo sapiens); assay: Inhibition of PRKACA by FRET assay
endpoint: IC50

# lookup: IC50 of `CSc1ccccc1Nc1nc(N2CCN(C3CCNCC3)CC2)nc2c(NCC3CC3)ncnc12`
< 10 µM

###

Molecular target: Ephrin type-B receptor 1 (Homo sapiens, UniProt P54762)
Sequence (P54762 whole entry): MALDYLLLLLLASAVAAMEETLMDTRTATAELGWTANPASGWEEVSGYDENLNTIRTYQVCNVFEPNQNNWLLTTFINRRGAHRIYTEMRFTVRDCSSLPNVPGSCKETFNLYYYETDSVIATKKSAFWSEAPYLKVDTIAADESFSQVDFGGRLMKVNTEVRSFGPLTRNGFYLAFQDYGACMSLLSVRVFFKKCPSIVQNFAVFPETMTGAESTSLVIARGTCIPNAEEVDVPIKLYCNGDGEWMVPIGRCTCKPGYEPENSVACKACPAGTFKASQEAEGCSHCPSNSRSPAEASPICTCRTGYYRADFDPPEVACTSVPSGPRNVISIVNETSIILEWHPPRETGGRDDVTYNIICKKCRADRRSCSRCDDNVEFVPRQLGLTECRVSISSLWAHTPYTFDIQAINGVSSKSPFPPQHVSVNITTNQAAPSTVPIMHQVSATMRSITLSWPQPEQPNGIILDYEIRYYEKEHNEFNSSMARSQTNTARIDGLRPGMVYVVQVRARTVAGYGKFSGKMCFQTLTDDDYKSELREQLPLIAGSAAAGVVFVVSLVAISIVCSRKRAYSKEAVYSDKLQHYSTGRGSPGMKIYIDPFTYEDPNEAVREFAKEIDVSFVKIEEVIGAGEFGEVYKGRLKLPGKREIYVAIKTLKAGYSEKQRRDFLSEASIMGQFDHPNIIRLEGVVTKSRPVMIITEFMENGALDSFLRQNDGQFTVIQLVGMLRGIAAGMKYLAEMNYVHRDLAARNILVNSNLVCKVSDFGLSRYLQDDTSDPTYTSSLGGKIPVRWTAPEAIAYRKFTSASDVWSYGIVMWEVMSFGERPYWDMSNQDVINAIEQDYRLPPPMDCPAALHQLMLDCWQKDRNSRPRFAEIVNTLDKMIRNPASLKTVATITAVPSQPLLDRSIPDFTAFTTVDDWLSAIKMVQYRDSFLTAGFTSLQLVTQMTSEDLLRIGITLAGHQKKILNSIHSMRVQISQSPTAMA
pIC50: −log10 of the molar value.
endpoint: pIC50

# lookup: pIC50 of `CSc1ccccc1Nc1nc(N2CCN(C3CCNCC3)CC2)nc2c(NCC3CC3)ncnc12`
> 5.00

###

biological target: Serine/threonine-protein kinase Chk2 (Homo sapiens)
Sequence (O96017 whole entry): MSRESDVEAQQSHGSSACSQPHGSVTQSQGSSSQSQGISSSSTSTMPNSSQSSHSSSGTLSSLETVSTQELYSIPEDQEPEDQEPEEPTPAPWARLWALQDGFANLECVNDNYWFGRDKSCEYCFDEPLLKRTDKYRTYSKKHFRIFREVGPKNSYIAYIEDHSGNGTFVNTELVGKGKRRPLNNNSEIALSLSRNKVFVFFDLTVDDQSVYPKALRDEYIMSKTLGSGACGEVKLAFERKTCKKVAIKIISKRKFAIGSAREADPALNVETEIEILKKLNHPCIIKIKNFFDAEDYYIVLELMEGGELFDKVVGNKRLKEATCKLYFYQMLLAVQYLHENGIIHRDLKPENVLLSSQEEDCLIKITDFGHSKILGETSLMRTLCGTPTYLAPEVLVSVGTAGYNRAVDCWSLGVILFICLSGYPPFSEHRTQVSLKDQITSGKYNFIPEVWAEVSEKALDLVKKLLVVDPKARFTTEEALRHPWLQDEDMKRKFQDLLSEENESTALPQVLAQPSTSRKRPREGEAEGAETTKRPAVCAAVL
endpoint: IC50

IC50 of `CSc1ccccc1Nc1nc(N2CCN(C3CCNCC3)CC2)nc2c(NCC3CC3)ncnc12` on Serine/threonine-protein kinase Chk2 (Homo sapiens)?
< 10 µM

###

molecular target: Serine/threonine-protein kinase PLK3 (Homo sapiens, UniProt Q9H4B4)
endpoint: IC50

IC50 of `CSc1ccccc1Nc1nc(N2CCN(C3CCNCC3)CC2)nc2c(NCC3CC3)ncnc12` on Serine/threonine-protein kinase PLK3 (Homo sapiens, UniProt Q9H4B4)?
< 10 µM

###

target: Serine/threonine-protein kinase pim-2 (Homo sapiens, UniProt Q9P1W9)
Sequence (Q9P1W9 whole entry): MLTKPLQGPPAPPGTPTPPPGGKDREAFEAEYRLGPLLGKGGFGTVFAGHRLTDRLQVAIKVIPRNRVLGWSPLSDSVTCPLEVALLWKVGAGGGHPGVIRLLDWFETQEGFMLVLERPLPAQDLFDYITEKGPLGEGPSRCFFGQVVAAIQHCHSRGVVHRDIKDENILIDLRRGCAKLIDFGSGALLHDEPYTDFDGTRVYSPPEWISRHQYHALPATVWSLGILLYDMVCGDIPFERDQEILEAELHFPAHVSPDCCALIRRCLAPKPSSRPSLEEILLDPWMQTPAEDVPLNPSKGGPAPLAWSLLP
endpoint: IC50

# lookup: IC50 of `CSc1ccccc1Nc1nc(N2CCN(C3CCNCC3)CC2)nc2c(NCC3CC3)ncnc12`
< 10 µM

###

biological target: High affinity nerve growth factor receptor (Homo sapiens, UniProt P04629)
Sequence (P04629 whole entry): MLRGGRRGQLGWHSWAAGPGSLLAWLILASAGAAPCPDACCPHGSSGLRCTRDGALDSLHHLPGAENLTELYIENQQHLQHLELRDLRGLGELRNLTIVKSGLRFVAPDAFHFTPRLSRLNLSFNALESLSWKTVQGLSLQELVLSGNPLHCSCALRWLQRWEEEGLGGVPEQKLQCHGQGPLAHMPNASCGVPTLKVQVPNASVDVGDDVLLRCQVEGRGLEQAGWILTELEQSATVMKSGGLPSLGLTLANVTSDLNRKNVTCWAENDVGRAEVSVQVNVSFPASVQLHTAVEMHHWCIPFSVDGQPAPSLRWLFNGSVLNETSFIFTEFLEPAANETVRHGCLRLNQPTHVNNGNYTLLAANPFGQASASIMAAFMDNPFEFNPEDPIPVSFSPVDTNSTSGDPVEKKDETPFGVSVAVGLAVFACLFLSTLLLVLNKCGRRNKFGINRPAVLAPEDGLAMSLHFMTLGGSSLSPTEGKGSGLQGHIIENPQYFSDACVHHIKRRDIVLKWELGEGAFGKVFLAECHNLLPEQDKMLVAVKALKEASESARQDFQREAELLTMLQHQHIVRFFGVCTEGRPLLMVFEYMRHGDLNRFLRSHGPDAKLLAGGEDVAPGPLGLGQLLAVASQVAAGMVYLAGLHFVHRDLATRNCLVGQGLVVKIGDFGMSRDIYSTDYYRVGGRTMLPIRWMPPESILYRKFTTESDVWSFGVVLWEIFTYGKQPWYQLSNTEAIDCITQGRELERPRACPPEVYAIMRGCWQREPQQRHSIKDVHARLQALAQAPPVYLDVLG
endpoint: IC50

# lookup: IC50 of `CSc1ccccc1Nc1nc(N2CCN(C3CCNCC3)CC2)nc2c(NCC3CC3)ncnc12`
< 10 µM

###

target: Casein kinase I isoform delta (Homo sapiens, UniProt P48730); test: Inhibition of CSNK1D by FRET assay
pIC50: −log10 of the molar value.
endpoint: pIC50

# lookup: pIC50 of `CSc1ccccc1Nc1nc(N2CCN(C3CCNCC3)CC2)nc2c(NCC3CC3)ncnc12`
> 5.00

###

molecular target: Serine/threonine-protein kinase PAK 3 (Homo sapiens, UniProt O75914)
Sequence (O75914 whole entry): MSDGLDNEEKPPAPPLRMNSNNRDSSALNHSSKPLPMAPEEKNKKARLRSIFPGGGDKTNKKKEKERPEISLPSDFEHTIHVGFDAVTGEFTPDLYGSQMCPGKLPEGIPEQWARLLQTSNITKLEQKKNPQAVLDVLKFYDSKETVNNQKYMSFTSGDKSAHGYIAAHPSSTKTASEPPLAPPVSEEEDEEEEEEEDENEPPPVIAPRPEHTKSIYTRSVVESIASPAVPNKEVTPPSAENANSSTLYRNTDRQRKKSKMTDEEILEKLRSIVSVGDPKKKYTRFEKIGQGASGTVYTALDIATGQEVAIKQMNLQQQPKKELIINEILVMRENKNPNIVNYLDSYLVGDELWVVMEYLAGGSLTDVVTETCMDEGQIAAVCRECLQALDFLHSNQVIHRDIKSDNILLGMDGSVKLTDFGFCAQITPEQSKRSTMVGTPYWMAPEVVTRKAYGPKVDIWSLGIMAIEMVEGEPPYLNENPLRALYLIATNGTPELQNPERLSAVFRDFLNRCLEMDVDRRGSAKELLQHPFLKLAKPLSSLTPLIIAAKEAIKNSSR
endpoint: IC50

IC50 of `CSc1ccccc1Nc1nc(N2CCN(C3CCNCC3)CC2)nc2c(NCC3CC3)ncnc12` on Serine/threonine-protein kinase PAK 3 (Homo sapiens, UniProt O75914)?
< 10 µM

###

target: Ketohexokinase (Homo sapiens, UniProt P50053); test: Inhibition of recombinant human hepatic KHKC
Sequence (P50053 whole entry): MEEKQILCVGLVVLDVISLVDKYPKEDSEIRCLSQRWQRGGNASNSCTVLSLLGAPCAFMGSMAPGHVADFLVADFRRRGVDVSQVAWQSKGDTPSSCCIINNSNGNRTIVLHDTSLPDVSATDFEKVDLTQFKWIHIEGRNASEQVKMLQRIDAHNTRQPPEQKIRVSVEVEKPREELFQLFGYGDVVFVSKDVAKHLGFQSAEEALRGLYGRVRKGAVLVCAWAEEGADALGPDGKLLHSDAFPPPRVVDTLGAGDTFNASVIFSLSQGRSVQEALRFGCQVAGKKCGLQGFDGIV
endpoint: pIC50
# log scale: pIC50 equals minus log10 of the concentration in mol/L

Worked examples, 3 molecules total:
CSc1ccccc1Nc1nc(N2CCN(C3CCNCC3)CC2)nc2c(NCC3CC3)ncnc12 ... 7.32
CSc1ccccc1Nc1nc(N2C[C@@H]3CCCN[C@@H]3C2)nc2c(NCC3CC3)ncnc12 ... 6.52
CSc1ccccc1Nc1nc(N2CCC(C3CCNCC3)CC2)nc2c(NCC3CC3)ncnc12 ... 7.30

# next molecule below
# lookup: pIC50 of `CSc1ccccc1Nc1nc(N2CCNC(C)(C)C2)nc2c(NCC3CC3)ncnc12`
7.40
